Attribution: paper PMC5540273

Tested on: PRP4
Experimental setup: concentration: 1 μM, replicates: in singlicate; n = 1;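 also: KINOMEscan kinase panel screen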
Experimental readout: %Inh (%)

Compound structure string	Assay target	Uom	Obs value
Fc1cc(Cl)ccc1Nc1ccnc2cc(-c3ccc(CN4CCSCC4)o3)ccc12	PRP4	%	29
CC(C)c1nc(-c2cccc(NS(=O)(=O)c3c(F)cccc3F)c2)c(-c2ccnc(Nc3ccc(N4CCOCC4)nc3)n2)s1.Cl	PRP4	%	0
O=C(Nc1n[nH]c2nc(-c3ccccc3)ccc12)C1CC1	PRP4	%	7
Cc1ccc(O)cc1Nc1ccnc2ccc(C(C)(C)C)cc12	PRP4	%	0
CCn1c(-c2nonc2N)nc2c(-c3ccccc3)ncc(OCCCN)c21.O=C(O)C(F)(F)F.O=C(O)C(F)(F)F	PRP4	%	27
CS(=O)(=O)c1cccc(CNc2nc(Nc3ccc4c(c3)CCC(=O)N4)ncc2C(F)(F)F)c1	PRP4	%	30
Cc1ccc(NC(=O)c2ccnc(N3CCCCC3)c2)cc1-c1ccc(C(=O)NCC2CC2)cc1	PRP4	%	0
Cc1ccc(NC(=O)c2ccc(Cl)c(Cl)c2)cc1-c1ccc(C(=O)Nc2ccncc2)cc1	PRP4	%	0
CN(c1ccc(NC(=O)N2CCN(CCCN3CCOCC3)CC2)cc1)c1ccnc(Nc2ccc(CS(C)(=O)=O)cc2)n1.Cl	PRP4	%	0
Nc1ncnc2scc(-c3ccc(NC(=O)Cc4cc(F)ccc4F)cc3)c12.O=C(O)C(F)(F)F	PRP4	%	26
COc1ccc(C)c(Nc2ccnc(Nc3ccc(-c4cnc[nH]4)cc3)n2)c1.Cl	PRP4	%	0
c1ccc(Oc2ccc(Nc3ccnc4cc(-c5ccc(CN6CCCCC6)o5)ccc34)cc2)nc1	PRP4	%	2
CCNC(=O)/C=C/c1n[nH]c2cc(Sc3ccccc3C(=O)NC)ccc12	PRP4	%	0
COC(=O)Nc1nc2cc(Oc3ccc(NC(=O)Nc4cccc(SC)c4)cc3)ccc2[nH]1.Cl	PRP4	%	28
O=C(Nc1n[nH]c2nc(-c3ccccc3O)ccc12)C1CC1	PRP4	%	0
COc1cccc(C2=C(Nc3cccc(O)c3)C(=O)NC2=O)c1	PRP4	%	41

----------
System: NLK
Experimental setup: concentration: 1 μM, replicates: in singlicate; n = 1
Each entry below carries its recorded %Inh.

Compound	%Inh
CN(c1ccc(NC(=O)Nc2cccc(Cl)c2)cc1)c1ccnc(N)n1.Cl	4%
Cc1cc(-c2c(-c3ccc(F)cc3)ncn2CCCN2CCOCC2)nc(N)n1	17%
Cc1cc(-c2ccnc(Nc3cccc(C#N)c3)n2)cc(C)c1O	16%
CN(c1ccc(F)c(NC(=O)c2cccc(OC(C)(C)C#N)c2Cl)c1)c1ccc2nc(NC(=O)C3CC3)sc2n1	78%
Cl.Cl.NC(CNC(=O)c1cc(Br)c(-c2ccnc3[nH]ccc23)s1)c1ccccc1 (centres unmarked)	22%
Cc1cccc(Nc2nc(NCCN)ncc2C(N)=O)c1	0%
Cc1ccc(NC(=O)c2ccc(Cl)c(Cl)c2)cc1-c1ccc(C(=O)Nc2ccncc2)cc1	43%
Cn1cc(-c2ccc3c(c2)CCN3C(=O)Cc2cc(F)cc(F)c2F)c2c(N)ncnc21	0%

----------
System: FER
Experimental setup: concentration: 1 μM, replicates: in singlicate; n = 1

Compound	%Inh
Fc1cc(Cl)ccc1Nc1ccnc2cc(-c3ccc(CN4CCSCC4)o3)ccc12 [GW560106]	37%
c1ccc(Oc2ccc(Nc3ccnc4cc(-c5ccc(CN6CCCCC6)o5)ccc34)cc2)nc1 [GW567143]	4%
CN(c1ccc(NC(=O)N2CCN(CCCN3CCOCC3)CC2)cc1)c1ccnc(Nc2ccc(CS(C)(=O)=O)cc2)n1.Cl [GW830899]	10%
O=C(O)C(F)(F)F.O=c1[nH]ccc2nc(N[C@@H]3CCNC3)nc(Nc3cc(Cl)cc(Cl)c3)c12 [GSK2188764]	55%
